# target under test: Cytochrome P450 2C19 (Homo sapiens) (UniProt P33261)
# Sequence (P33261 whole entry, looked up): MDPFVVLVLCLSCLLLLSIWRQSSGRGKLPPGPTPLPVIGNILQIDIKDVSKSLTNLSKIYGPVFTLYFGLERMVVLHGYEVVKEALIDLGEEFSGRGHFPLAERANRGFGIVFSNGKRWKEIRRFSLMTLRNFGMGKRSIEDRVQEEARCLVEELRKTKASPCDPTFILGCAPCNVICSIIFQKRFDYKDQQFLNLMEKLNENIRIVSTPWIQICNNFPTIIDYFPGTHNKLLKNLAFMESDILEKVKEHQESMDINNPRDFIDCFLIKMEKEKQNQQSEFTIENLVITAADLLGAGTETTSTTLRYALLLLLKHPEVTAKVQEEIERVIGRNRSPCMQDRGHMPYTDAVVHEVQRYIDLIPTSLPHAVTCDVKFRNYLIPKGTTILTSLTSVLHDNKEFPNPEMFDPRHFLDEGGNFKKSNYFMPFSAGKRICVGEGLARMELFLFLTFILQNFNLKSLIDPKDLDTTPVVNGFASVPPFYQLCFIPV
# assay procedure: blockers of cytochrome P450 2C19 activity – biochemical, luminescence, ADME assay, primary screen (AID 778);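 further: plate controls were negative control wells for no effect and 2.5 mM tranylcypromine positive control for full effect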
# condition: CYP2C19 Supersomes, luciferin-H EGE luminescence, 30 min; at 5 µM; stronger effect = higher value
In all, about 96,000 compounds went through this assay and about 20,000 (21%) were called active. These entries were drawn from the full list.
property measured: inhibition (%)
Answers are plain numbers, in %.

Answered cases to consult:
CCOc1cc(/C=N/n2cnnc2)c(Br)cc1O: 5.4
Cc1cccc(NC(=S)N2CCC(c3nc4ccccc4s3)CC2)c1: 8.3
COCCNC(=O)CN(C(=O)CCC(=O)Nc1cc(C)on1)c1ccc(C)cc1C: 11.8
CCOC(=O)c1ccc(N2C(=O)CC(Sc3nc(O)c(CC)c(=O)[nH]3)C2=O)cc1 (stereo unspecified): -1
CO/N=C(/CS(=O)(=O)c1ccc(Br)cc1)c1ccc(OC)cc1: 100

Consider the additional molecule presented here.
Please look at COC(=O)CNS(=O)(=O)c1ccc(OC)cc1 and tell me its recorded inhibition on Cytochrome P450 2C19 (Homo sapiens) (UniProt P33261).
10.3

----------
# target under test: Cytochrome P450 2C19 (Homo sapiens) (UniProt P33261)
# assay procedure: blockers of cytochrome P450 2C19 activity – biochemical, luminescence, ADME assay, primary screen (AID 778)
# condition: CYP2C19 Supersomes, luciferin-H EGE luminescence, 30 min; at 5 µM
Screen size: about 96,000 compounds; about 20,000 (21%) were called active.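 How the source made its calls: active means CYP2C19 inhibition above a set limit at 5 µM in the primary screen (cut at about 50% in these data); inactive means the rest.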 A selection follows.
Could you please pick one outcome from this set? active, inactive

Per the records of this test, what outcome belongs to O=C(OCc1cc2ccccc2[nH]c1=O)c1cccnc1 ?
inactive

Per the records of this test, what outcome belongs to COC(=O)CNC(=O)c1ccc2c(c1)S(=O)(=O)c1ccccc1C2=O ?
inactive

Per the records of this test, what outcome belongs to CCOc1ccc(-c2c(C)n([O-])c3c([n+]2=O)CCCC3)cc1 ?
inactive

Per the records of this test, what outcome belongs to CCc1ccc(NC(=O)CS(=O)CC(=O)NCCCc2ccccc2)cc1 (centres undefined) ?
inactive

Per the records of this test, what outcome belongs to COc1ccc(OC)c(S(=O)(=O)Nc2ccccc2F)c1 ?
active

----------
# target under test: Cytochrome P450 2C19 (Homo sapiens) (UniProt P33261)
# assay procedure: blockers of cytochrome P450 2C19 activity – biochemical, luminescence, ADME assay, primary screen (AID 778)
# condition: CYP2C19 Supersomes, luciferin-H EGE luminescence, 30 min; at 5 µM
The campaign covered roughly 96,000 compounds. About 20,000 (21%) were called active.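 Rule for the calls: active = CYP2C19 inhibition above a set limit at 5 µM in the primary screen (cut at about 50% in these data); inactive = the rest.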 These entries were drawn from the full list.
Could you please pick one outcome from this set? T (active), F (inactive)

These solved cases illustrate the format of a correct answer.
CC1CCCN(c2ccc(C(=O)NCCc3ccccc3)cn2)C1 (stereo not given): T
O=C1c2ccccc2C(=O)N1CCCc1nc(-c2ccccc2)no1: F
CN(C(=O)CSc1nnc(N)s1)c1c(N)n(Cc2ccccc2)c(=O)[nH]c1=O: F
CC(=O)Nc1cc2ccc(OC(C)=O)cc2oc1=O: F

Per the records of this test, what outcome belongs to O=C(CCSCCc1ccccn1)Nc1nccs1 ?
T

Per the records of this test, what outcome belongs to CCCc1nnc(NC(=O)c2cc(OC)cc(OC)c2)s1 ?
F

Per the records of this test, what outcome belongs to O=c1c2ccccc2nnn1CSc1nc2sc3c(c2c(=O)n1CC1CCCO1)CCC3 (stereo not given) ?
T

Per the records of this test, what outcome belongs to COCCn1c(CN2CCC(Cc3ccccc3)CC2)nc2c1c(=O)n(C)c(=O)n2C ?
F

Per the records of this test, what outcome belongs to COc1ccc(C(=O)N(Cc2ccc(N(C)C)cc2)C2CCS(=O)(=O)C2)cc1 (stereo not given) ?
F

Per the records of this test, what outcome belongs to CN1CCCN(S(=O)(=O)c2ccc3c(c2)OCCO3)CC1 ?
F

Per the records of this test, what outcome belongs to O=C(O)C1CCN(S(=O)(=O)N2CCOCC2)CC1 ?
F

Per the records of this test, what outcome belongs to O=C(NC1CCCCC1)C1CC(=O)N(CCc2ccccc2)C1 (stereo not given) ?
F

Per the records of this test, what outcome belongs to Cn1cc(S(=O)(=O)N2CCN(c3ccc(F)cc3)CC2)c(=O)n(C)c1=O ?
F

Per the records of this test, what outcome belongs to CCC12CN3CC(CC)(CN(C1)C31C(=O)N(C)c3ccc(C)cc31)C2=O (stereo not given) ?
F

Per the records of this test, what outcome belongs to COn1c(=O)c(=O)n(OC)c2ccccc21 ?
F

Per the records of this test, what outcome belongs to c1ccc(CCc2nc(-c3ccncc3)no2)cc1 ?
T

----------
# target under test: Cytochrome P450 2C19 (Homo sapiens) (UniProt P33261)
# assay procedure: blockers of cytochrome P450 2C19 activity – biochemical, luminescence, ADME assay, primary screen (AID 778);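 further: plate controls were negative control wells for no effect and 2.5 mM tranylcypromine positive control for full effect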
# condition: CYP2C19 Supersomes, luciferin-H EGE luminescence, 30 min; at 5 µM; stronger effect = higher value
In all, about 96,000 compounds went through this assay and about 20,000 (21%) were called active. Only a sample is shown.
property measured: inhibition (%)
One number for each entry, in %.

Answered cases to consult:
COc1ccc(-c2nnc(SCC(=O)c3cccs3)o2)c(OC)c1: 14.1
COc1ccc(C(=O)CN2C(=O)NC(C)(c3ccc(C)cc3)C2=O)cc1OC (stereo unspecified): 1.3
NC(=O)CCCC1=NS(=O)(=O)c2ccccc2N1: -6.5
COc1ccc(-c2nnc(SC(=O)N3c4ccccc4Sc4ccccc43)o2)cc1: 11.9
Cc1cc(NC(=O)CSc2nnc(-c3ccc(Cl)s3)o2)no1: 32.4
COc1ccc(-c2cc(C(=O)NC(C(=O)O)C(C)C)c(C)o2)cc1OC (stereo unspecified): 6.4
COc1ccc(OC)c(NC(=O)c2cnn(-c3ccccc3Cl)c2NC(=O)c2ccco2)c1: -0.9
COc1ccc(-n2c(C)cc(C(=O)CSc3nnc(-c4cccs4)o3)c2C)cc1: 83.2
COc1ccc(OC)c(C(=O)CSc2nnc(-c3cccs3)o2)c1: 54.9
COC(=O)CSc1nnc(-c2cccnc2)o1: 7.2

Consider the additional compound presented here.
Please look at O=c1c2[nH]c3ccc(Cl)cc3c2ncn1Cc1ccccn1 and tell me its recorded inhibition on Cytochrome P450 2C19 (Homo sapiens) (UniProt P33261).
10.9

----------
# target under test: Cytochrome P450 2C19 (Homo sapiens) (UniProt P33261)
# assay procedure: blockers of cytochrome P450 2C19 activity – biochemical, luminescence, ADME assay, primary screen (AID 778);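 further: plate controls were negative control wells for no effect and 2.5 mM tranylcypromine positive control for full effect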
# condition: CYP2C19 Supersomes, luciferin-H EGE luminescence, 30 min; at 5 µM
Out of some 96,000 compounds screened, about 20,000 (21%) were called active.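 Rule for the calls: active = CYP2C19 inhibition above a set limit at 5 µM in the primary screen (cut at about 50% in these data); inactive = the rest.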 The list is a sample of the results.
Could you please pick one outcome from this set? YES (active), NO (inactive)

These solved cases illustrate the format of a correct answer.
COc1ccc(-c2oc3ncn(Cc4ccco4)c(=N)c3c2-c2ccc(OC)cc2)cc1: NO
O=C(Cn1c(=S)nc2ccccn21)N1CCc2ccccc2C1: NO

Per the records of this test, what outcome belongs to COc1ccc(OCC(=O)N2CCN(C(=O)COc3ccccc3)CC2)cc1 ?
NO

Per the records of this test, what outcome belongs to O=C(COc1ccccc1)N1CCc2ccccc2C1 ?
YES

Per the records of this test, what outcome belongs to CC(C)c1cc(C(=O)O)on1 ?
NO

Per the records of this test, what outcome belongs to Cc1ccc(S(=O)(=O)c2nc(NCCCn3ccnc3)sc2Cl)cc1 ?
YES

----------
# target under test: Cytochrome P450 2C19 (Homo sapiens) (UniProt P33261)
# assay procedure: blockers of cytochrome P450 2C19 activity – biochemical, luminescence, ADME assay, primary screen (AID 778);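 further: plate controls were negative control wells for no effect and 2.5 mM tranylcypromine positive control for full effect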
# condition: CYP2C19 Supersomes, luciferin-H EGE luminescence, 30 min; at 5 µM
In all, about 96,000 compounds went through this assay and about 20,000 (21%) were called active.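 Rule for the calls: active = CYP2C19 inhibition above a set limit at 5 µM in the primary screen (cut at about 50% in these data); inactive = the rest.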 A selection follows.
Could you please pick one outcome from this set? active, inactive

These solved cases illustrate the format of a correct answer.
Cc1nn(CC(=O)Nc2nc3ccccc3s2)c(C)c1[N+](=O)[O-]: active
O=C(CCCN1C(=O)c2cccc3cccc(c23)C1=O)N1CCN(Cc2ccc3c(c2)OCO3)CC1: active
O=C(Nc1cccc2ccccc12)N1CCN(Cc2ccc3c(c2)OCO3)CC1: inactive
Cc1onc(-c2ccccc2Cl)c1C(=O)NCCn1ccc2ccccc21: active
NC(=O)C1(N2CCCCC2)CCN(C(=S)Nc2ccc(Cl)cc2)CC1: active
CCOc1ccc(N=Cc2c(O)n(-c3cccc(C)n3)c(=O)c3ccccc23)cc1: inactive
Cc1ccc(S(=O)(=O)N(C)CC(=O)N2CCc3ccccc32)cc1: inactive
COC(=O)c1cc(NC(=O)CN2CCC(C(N)=O)(N3CCCCC3)CC2)cc(C(=O)OC)c1: inactive
O=C(CSCc1ccccc1)N1CCc2ccccc21: active
CCn1c(-c2ccoc2C)n[nH]c1=S: inactive

Per the records of this test, what outcome belongs to CCS(=O)(=O)Nc1ccc(C2=NN(S(=O)(=O)c3ccc(F)cc3)C(c3ccco3)C2)cc1 (configuration not stated) ?
active

Per the records of this test, what outcome belongs to c1ccc(-c2cn3cccnc3n2)cc1 ?
inactive
